Where do these numbers come from? They come from the supplement of paper PMC12632987.

Target: MAP1LC3A, Q9H492
Experiment: median log2 fold change of GCK-ALFA target abundance (FLAG IP / Myc IP barcode read proportion) (log2 ratio); each designed protein is fused to an ALFA-tag nanobody in HEK293 cells to bring the named protein to FLAG-tagged glucokinase (GCK); Myc marks an untargeted standard; higher = target protein stabilised (more abundant)
Conditions: target protein: 3xFLAG-MCP-GCK-ALFA reporter; HEK293 landing pad (RPLP)
Over roughly 2,300 sequences, “median log2 fold change of GCK-ALFA target abundance (FLAG IP / Myc IP barcode read proportion)” has its median near 0.095; the lowest 2% begin near -0.47. For the sample, the lowest values were picked, then their nearest neighbours and some sequences at random.
Would you mind classing the entries by median log2 fold change? Ranges: zone 1: < -0.4; zone 2: ≥ -0.4 and < 0.05; zone 3: ≥ 0.05

Query string: Category lookup for the binder LC3A_132_295 (protein) MEEKAEKYLKELKALIAAAKANIDDDAKVTALLKEIEAKIEEAEKELTPEEVAKVFEEVADELWALSQVFDAAGKEQLALEADGLAIEAASLALRAKEKI
Result string: zone 2

Query string: Kindly state the category for this binder: LC3A_28_1195 (protein) SLAEETIKKIREQAKKALEEGDGAVIEVNISKELSDEGIDKILETIKEEAAKLADLESVSIIINVESGVSQENIDKIADTGEEIEEKYPNVTVIIALDED
Result string: zone 3

Query string: Determine which band this binder sits in: LC3A_3_1781 (protein) AEARIAELLAALEAAGASPETIAAVRAAAEALRARGYEEALATFVEEMRRLLGLPDEIRLAFAQEVLRLIEENDLSEEELTEEIRRLARLARLEAEIEEL
Result string: zone 3

Query string: Lab note: sort LC3A_132_254 (protein) SEELLEKALKELKELLDKIVADLKAGKDPWPTINKLYELALKYAEKLSLEETEKLAEESEKYAEELFAKELDPNDEEARRTLDIVEMLLESVLIEKELRS into the matching median log2 fold change band.
Result string: zone 1

Query string: Determine which band this binder sits in: LC3A_132_255 (protein) SKELLEKALKELKEILDKIVELLQAGKDPWPAVKELEEKAEEYAEKLSLEETEELVKESEKYAEELFAARLDPNNEEARRVLDHIEMLFESVLIEKELKS
Result string: zone 3

Query string: Class? Entry: LC3A_3_1491 (protein) MEELLERMREVLEARGASEEQIEEVLEAVEELLELGYEETVEELIELFEANPDLDPEQIVTAVLITLEVAEEEDLSEEELVERARRIFEDVAEIEALDEE
Result string: zone 1

Query string: Please report the category associated with LC3A_132_258 (protein) SEEKKEEFLEKFKELIDKIVEALQAGQDPSPYLKELDELAEEAAEELSLEELEELVEEAEKYARERFAERLDPNDPEARRTLLIVEMILDSALIESELRA , nothing else.
Result string: zone 1

Query string: Quick check: band for LC3A_28_698 (protein) SRVDEDIERARKIAEEAIAKGEDALIELTIRPDTTAEDVDRILATIRELAEKMSKTGKLYVVVDVESGVDQANIDRIADELDKLMEEIPNLTAVIALDED
Result string: zone 2

Query string: Hello team, could you let me know which band the following binder falls into: LC3A_132_256 (protein) SEELYERFLEEAKELIDKIVDALKAGKDPSPYIKELDELAEEAAEKLSLEELERLVEEAEEYAEERFAERLDPNDPEARRALDIVEMILDSALIEAELRA
Result string: zone 2

Query string: Band assignment needed for LC3A_28_943 (protein) MSIEEDIEAALKEAKEAKKKGEPAVITITVKGTATQEEVDAVIKTIKEIAELLKDIKGSAIIVDIEAGVAQEHVDALMDTLDEIEKKYPNINAIAALDED please.
Result string: zone 2

Query string: Band for the recorded median log2 fold change of LC3A_free_0_2120 (protein) KKTVVEVVIILDDSTSEEKAKEIHEKLKEEAEKLAKENGGELKSSLSKSDGSYIITLEITFDTEDIDLALEVERKLVEIAEKILKEANVEATIYSSVYLE ?
Result string: zone 2

Query string: Which class does LC3A_free_39_2214 (protein) SEEELEELIKEVAKESGLDYEYIKKKIEEIKEIAGLSLEQMKELVKAILEAVKAGADAEEILKRILALAKELKAAGKSPEEIAEALIEEAEDFRNLIPLD fall in?
Result string: zone 1

Query string: Which class holds LC3A_28_758 (protein) MDVAEIVAAAIAEAKAAAAAGEEAVIRIRVPAGATQEDIDKVIAGLEEIAEIRKDMKSTSIVIDIEAGVSQENIDKLIDAGEAIEKKYPNITVIFALDED ?
Result string: zone 3
